Reference source: ChEMBL document CHEMBL3774328

viability at 60 µM for assorted compounds
Assay: Intrinsic cytotoxicity against mouse NIH/3T3 cells assessed as cell growth at 60 uM by MTT assay
Format: cell-based, NIH3T3
Conditions: read-out: Activity
All answers are understood in %, so give the number only.

[Q] Consider the compound "COC(=O)CCCC(=O)O[C@@H]1[C@H]2[C@H](OC(=O)/C=C/c3ccccc3)[C@H](OC(=O)c3ccccc3)[C@]3(C)[C@@H](OC(C)=O)CC[C@](C)(O)[C@@]13OC2(C)C" and give its measured viability at 60 µM.
[A] 71.3

[Q] Query (compound): "CC(=O)O[C@H]1CC[C@](C)(O)[C@]23OC(C)(C)[C@H]([C@H](OC(=O)/C=C/c4ccccc4)[C@H](OC(=O)c4ccccc4)[C@]12C)[C@H]3OC(=O)c1cccnc1" ; field requested: viability at 60 µM
[A] 67.7

[Q] Quick check: viability at 60 µM of "CC(=O)O[C@H]1CC[C@](C)(O)[C@]23OC(C)(C)[C@H]([C@H](OC(=O)/C=C/c4ccccc4)[C@H](OC(=O)c4ccccc4)[C@]12C)[C@H]3OS(C)(=O)=O" ?
[A] 69.1

[Q] Returns the measured viability at 60 µM for the input compound. Input: "CCC(=O)O[C@@H]1[C@H]2[C@H](OC(=O)/C=C/c3ccccc3)[C@H](OC(=O)c3ccccc3)[C@]3(C)[C@@H](OC(C)=O)CC[C@](C)(O)[C@@]13OC2(C)C"
[A] 68.6

[Q] Requested read-out: viability at 60 µM. Entry: "CC(=O)O[C@H]1CC[C@@H](C)[C@]23OC(C)(C)[C@H]([C@H](OC(=O)CCc4ccccc4)[C@H](OC(=O)c4ccccc4)[C@]12C)[C@H]3O"
[A] 72.3

Others:
[Q] For the compound shown here, "CC(=O)O[C@H]1CC[C@](C)(O)[C@]23OC(C)(C)[C@H]([C@H](OC(=O)/C=C\c4ccccc4)[C@H](OC(=O)c4ccccc4)[C@]12C)[C@H]3OC(=O)c1cnccn1" , give the reported viability at 60 µM.
[A] 68.3

[Q] So what's the measured viability at 60 µM for this one? CCC(C)C(=O)O[C@@H]1[C@H]2[C@H](OC(=O)/C=C/c3ccccc3)[C@H](OC(=O)c3ccccc3)[C@]3(C)[C@@H](OC(C)=O)CC[C@](C)(O)[C@@]13OC2(C)C (stereo not given in full)
[A] 57.3

[Q] I'd like to know its viability at 60 µM. The compound in question is "CC(=O)O[C@H]1CC[C@](C)(O)[C@]23OC(C)(C)[C@H]([C@H](OC(=O)/C=C/c4ccccc4)[C@H](OC(=O)c4ccccc4)[C@]12C)[C@H]3OC(=O)c1ccccc1"
[A] 64.1

[Q] I am curious: what viability at 60 µM value has been reported for "CC(=O)O[C@H]1CC[C@](C)(O)[C@]23OC(C)(C)[C@H]([C@H](OC(=O)/C=C/c4ccccc4)[C@H](OC(=O)c4ccccc4)[C@]12C)[C@H]3OC(=O)c1cnccn1" ?
[A] 66.3

[Q] Would you kindly share the measured viability at 60 µM for "CC(=O)O[C@H]1CC[C@](C)(OC(C)=O)[C@]23OC(C)(C)[C@H]([C@H](OC(=O)/C=C/c4ccccc4)[C@H](OC(=O)c4ccccc4)[C@]12C)[C@H]3OC(C)=O" ?
[A] 68.1

====

Listed here are compounds together with their documented CC50.
Assay: Intrinsic cytotoxicity against mouse NIH/3T3 cells transfected with human MDR1 by MTT assay
Type: ADME, cell-based, NIH3T3
Supply the numeric figure in µM, leaving out any unit text.

Example cases with answers are listed next.
[Q] Look up CC50: "CC(=O)O[C@H]1CC[C@](C)(O)[C@]23OC(C)(C)[C@H]([C@H](OC(=O)/C=C/c4ccccc4)[C@H](OC(=O)c4ccccc4)[C@]12C)[C@H]3OC(=O)CCl"
[A] 5.3

[Q] Given the compound "CC(=O)O[C@H]1CC[C@](C)(O)[C@]23OC(C)(C)[C@H]([C@H](OC(=O)/C=C/c4ccccc4)[C@H](OC(=O)c4ccccc4)[C@]12C)[C@H]3OC(=O)C1CC1" , what is its reported CC50?
[A] 11.2

# input for lookup
[Q] Which value of CC50 has been reported for "CC(=O)O[C@H]1CC[C@](C)(OC(=O)CN2CCOCC2)[C@]23OC(C)(C)[C@H]([C@H](OC(=O)/C=C/c4ccccc4)[C@H](OC(=O)c4ccccc4)[C@]12C)[C@H]3OC(C)=O" in the records?
[A] 33.1

====

Each entry below lists one item and its recorded fold change (FC) value.
Target: ATP-dependent translocase ABCB1 (Homo sapiens, UniProt P08183)
Sequence (P08183 whole entry): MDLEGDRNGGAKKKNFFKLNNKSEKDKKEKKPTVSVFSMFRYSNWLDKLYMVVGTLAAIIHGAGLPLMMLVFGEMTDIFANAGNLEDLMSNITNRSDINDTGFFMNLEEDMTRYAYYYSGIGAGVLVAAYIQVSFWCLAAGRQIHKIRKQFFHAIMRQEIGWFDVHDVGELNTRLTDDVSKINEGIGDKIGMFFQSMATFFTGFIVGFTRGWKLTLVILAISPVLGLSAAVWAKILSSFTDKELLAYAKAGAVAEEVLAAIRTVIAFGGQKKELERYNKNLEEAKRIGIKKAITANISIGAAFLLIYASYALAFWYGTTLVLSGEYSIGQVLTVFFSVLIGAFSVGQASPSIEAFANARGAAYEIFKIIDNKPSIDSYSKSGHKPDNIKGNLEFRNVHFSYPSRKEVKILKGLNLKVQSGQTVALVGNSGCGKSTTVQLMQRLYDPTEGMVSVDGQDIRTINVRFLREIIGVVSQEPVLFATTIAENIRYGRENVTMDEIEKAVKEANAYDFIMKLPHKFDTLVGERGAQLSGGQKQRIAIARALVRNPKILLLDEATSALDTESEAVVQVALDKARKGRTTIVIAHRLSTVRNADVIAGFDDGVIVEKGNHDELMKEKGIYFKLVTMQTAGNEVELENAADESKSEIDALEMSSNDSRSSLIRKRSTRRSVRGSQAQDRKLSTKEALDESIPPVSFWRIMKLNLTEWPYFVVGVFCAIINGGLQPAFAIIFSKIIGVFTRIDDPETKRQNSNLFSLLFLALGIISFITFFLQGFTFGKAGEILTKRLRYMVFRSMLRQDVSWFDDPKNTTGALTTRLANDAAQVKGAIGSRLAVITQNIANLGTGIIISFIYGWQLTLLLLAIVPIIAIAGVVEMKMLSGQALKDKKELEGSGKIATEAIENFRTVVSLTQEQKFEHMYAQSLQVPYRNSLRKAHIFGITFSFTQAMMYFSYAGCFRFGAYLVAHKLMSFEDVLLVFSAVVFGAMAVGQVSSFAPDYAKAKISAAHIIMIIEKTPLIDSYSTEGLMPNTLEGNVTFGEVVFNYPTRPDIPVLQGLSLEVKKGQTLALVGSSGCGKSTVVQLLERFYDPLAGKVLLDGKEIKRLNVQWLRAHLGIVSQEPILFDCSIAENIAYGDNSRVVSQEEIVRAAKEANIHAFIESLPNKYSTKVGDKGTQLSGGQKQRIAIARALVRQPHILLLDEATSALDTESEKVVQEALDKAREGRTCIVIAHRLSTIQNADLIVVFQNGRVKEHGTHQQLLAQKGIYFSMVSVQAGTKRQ
Test: Inhibition of human MDR1 expressed in mouse NIH/3T3 cells assessed as reduction in vinblastine IC50 at 10 uM by MTT assay
Format: cell-based
Conditions: nih3t3, 10 µM
Answer field: number only, no words.

Examples from the recorded data:
[Q] Name the reported fold change (FC) value associated with the compound "CC(=O)O[C@H]1CC[C@]2(C)O[C@@H]3[C@H]4[C@H](OC(=O)/C=C/c5ccccc5)[C@H](OC(=O)c5ccccc5)[C@@]1(C)[C@]32OC4(C)C"
[A] 125.2

[Q] I'd like to know its fold change (FC). The compound in question is "CCC(=O)O[C@@H]1[C@H]2[C@H](OC(=O)/C=C/c3ccccc3)[C@H](OC(=O)c3ccccc3)[C@]3(C)[C@@H](OC(C)=O)CC[C@](C)(O)[C@@]13OC2(C)C"
[A] 110.9

[Q] Name the reported fold change (FC) value associated with the compound "CC(=O)O[C@H]1CC[C@](C)(OC(C)=O)[C@]23OC(C)(C)[C@H]([C@H](OC(=O)/C=C/c4ccccc4)[C@H](OC(=O)c4ccccc4)[C@]12C)[C@H]3OC(C)=O"
[A] 91.7

[Q] Which measured fold change (FC) value corresponds to "CC(=O)O[C@H]1CC[C@](C)(OC(=O)CN2CCOCC2)[C@]23OC(C)(C)[C@H]([C@H](OC(=O)/C=C/c4ccccc4)[C@H](OC(=O)c4ccccc4)[C@]12C)[C@H]3OC(C)=O" ?
[A] 173.4

[Q] Entry under review: "COC(=O)CCCC(=O)O[C@@H]1[C@H]2[C@H](OC(=O)/C=C/c3ccccc3)[C@H](OC(=O)c3ccccc3)[C@]3(C)[C@@H](OC(C)=O)CC[C@](C)(O)[C@@]13OC2(C)C" . Reported fold change (FC)?
[A] 103.6

Further cases:
[Q] Can you share its fold change (FC)? I mean this compound: "CC(=O)O[C@H]1CC[C@](C)(O)[C@]23OC(C)(C)[C@H]([C@H](OC(=O)/C=C\c4ccccc4)[C@H](OC(=O)c4ccccc4)[C@]12C)[C@H]3OC(=O)c1cnccn1"
[A] 39.6

[Q] Can you look up the measured fold change (FC) of "CC(=O)O[C@H]1CC[C@](C)(O)[C@]23OC(C)(C)[C@H]([C@H](OC(=O)CCc4ccccc4)[C@H](OC(=O)c4ccccc4)[C@]12C)[C@H]3O" for me?
[A] 43.8

[Q] Query (compound): "CC(=O)O[C@H]1CC[C@](C)(O)[C@]23OC(C)(C)[C@H]([C@H](OC(=O)/C=C/c4ccccc4)[C@H](OC(=O)c4ccccc4)[C@]12C)[C@H]3OC(=O)c1cnccn1" ; field requested: fold change (FC)
[A] 20.6

[Q] Find the recorded fold change (FC) belonging to "CC(=O)O[C@H]1CC[C@](C)(O)[C@]23OC(C)(C)[C@H]([C@H](OC(=O)/C=C/c4ccccc4)[C@H](OC(=O)c4ccccc4)[C@]12C)[C@H]3O" and report it.
[A] 86.6

====

CC50 values by entry
Experiment: Intrinsic cytotoxicity against mouse NIH/3T3 cells by MTT assay
Type: cell-based, NIH3T3
Please state the figure in µM; there is no need to write the unit.

Some solved cases for reference:
[Q] Query (compound): "CC(=O)O[C@H]1CC[C@](C)(O)[C@]23OC(C)(C)[C@H]([C@H](OC(=O)/C=C/c4ccccc4)[C@H](OC(=O)c4ccccc4)[C@]12C)[C@H]3OC(=O)CCC(=O)OCCO" ; field requested: CC50
[A] 27.7

[Q] Data request, read-out CC50, for "CC(=O)O[C@H]1CC[C@](C)(O)[C@]23OC(C)(C)[C@H]([C@H](OC(=O)/C=C/c4ccccc4)[C@H](OC(=O)c4ccccc4)[C@]12C)[C@H]3OC(=O)CBr"
[A] 8.6

Others:
[Q] Look up CC50 for this compound: "CC(=O)O[C@H]1CC[C@](C)(O)[C@]23OC(C)(C)[C@H]([C@H](OC(=O)/C=C/c4ccccc4)[C@H](OC(=O)c4ccccc4)[C@]12C)[C@H]3OC(=O)CCl"
[A] 7.4

[Q] I have this compound here, "CCOC(=O)CCC(=O)O[C@@H]1[C@H]2[C@H](OC(=O)/C=C/c3ccccc3)[C@H](OC(=O)c3ccccc3)[C@]3(C)[C@@H](OC(C)=O)CC[C@](C)(O)[C@@]13OC2(C)C" , and I need its recorded CC50.
[A] 58.9
